meta.source: patent US20250027060A1

target-under-test: T1, LTKTG-EGFL (human LTK amino acids 63-420) (human, UniProt P29376 63-420)
T1 construct: Fc-His6 tag removed by caspase 3; also called LTK (in BLI, SEC-MALLS and ITC)
T1 sequence: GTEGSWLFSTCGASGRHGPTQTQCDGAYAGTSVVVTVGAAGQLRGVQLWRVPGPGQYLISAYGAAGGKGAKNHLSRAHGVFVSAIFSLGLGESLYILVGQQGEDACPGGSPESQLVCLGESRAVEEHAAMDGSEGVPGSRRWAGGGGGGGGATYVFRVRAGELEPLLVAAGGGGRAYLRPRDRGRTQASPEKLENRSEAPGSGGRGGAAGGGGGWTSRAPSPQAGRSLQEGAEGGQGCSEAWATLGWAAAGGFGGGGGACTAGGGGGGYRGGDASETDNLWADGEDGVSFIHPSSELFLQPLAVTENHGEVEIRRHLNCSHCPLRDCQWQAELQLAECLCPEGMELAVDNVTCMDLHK
experiment-summary: BLI, biotinylated ALKAL1 R102E on streptavidin biosensors, LTKTG-EGFL in solution, dilution series 6.4 µM-400 nM
outcome-measure: Kd
# number then unit; no other words

Q: Reported Kd, binder ALKAL1^R102E (residues 57-129) (ligand, human, UniProt Q6UXT8 57-129, looked up, range 57-129; also called ALKAL1 site 1 mutant R102E) PSGSRSAEIFPRDSNLKDKFIKHFTGPVTFSPECSKHFHRLYYNTEECSTPAYYKRCARLLTRLAVSPLCSQT : ____
Ans: 14 µM
